# Test system: UACC-257 melanoma
# TEST_DETAILS: NCI-60 one-dose screen, 48 h (100 = growth as untreated, 0 = no growth, -100 = all killed)
# TEST_SETTINGS: 10 µM unless noted
This is part of a sample that, as a whole, favours compounds with a hit. Of some 83,000 tested, about 20% had one in any assay.
Recorded growth determines the group label, using b0: < -10%; b1: ≥ -10% and < 80%; b2: ≥ 80%

Which category does the recorded growth put CCOC(=O)COc1c(OC)c(OC)cc2oc(-c3cccc(C(=O)Nc4ccc(Cl)cc4)c3)cc(=O)c12 in?
b1

Which category does the recorded growth put COc1ccc(-c2ccnc(SCc3cc4cc(OC)ccc4[nH]c3=O)n2)cc1 in?
b1

Which category does the recorded growth put O=C1CCCc2cc(OCC(=O)N3CCCCC3)ccc2N1 in?
b2

Which category does the recorded growth put CN(C)CCn1c2ccccc2c2nc3ccc([N+](=O)[O-])cc3nc21 in?
b0

Which category does the recorded growth put CCN1CCN(Cc2ccc(C(=O)Nc3cccc(C#Cc4cccc5[nH]nc(N)c45)c3)cc2C(F)(F)F)CC1 in?
b0

Which category does the recorded growth put CCOC(=O)C1=C(N)N(c2ccccc2)C2=C(C(=O)CC(C)(C)C2)C1c1ccc(N2CCOCC2)cc1 (centres undefined) in?
b2

Which category does the recorded growth put C=C1CC[C@@H]2[C@]3(C)COC(c4cn(-c5ccccc5)nc4-c4ccccc4)O[C@@H]3CC[C@@]2(C)[C@@H]1C/C=C1/C(=O)OC[C@H]1O (some centres undefined) in?
b0

Which category does the recorded growth put CCN1C(=O)/C(=N\N=C(/C)c2ccc3c(c2)Nc2ccccc2S3)c2cc(Cl)ccc21 in?
b1

Data provenance is PubChem BioAssay (NCI).
